- Organism: Rattus norvegicus
- measurement-description: Neuroprotective activity against oxygen glucose deprivation/reperfusion-induced Wistar rat cortical brain assessed as reduction in LDH release relative to control
- Format: functional
- Set-up: concentration or dose not given beside the values
The source made the active and inactive calls. The calls are words filed in the database; no cut-off is given here.

given-smiles: CN/C(C)=N/C1=Nc2ccccc2CS1
Activity: 40.1%

given-smiles: CCN(CC)/C(C)=N/C1=Nc2ccccc2CS1
Activity: 72.4%

given-smiles: C/C(=N\C1=Nc2ccccc2SC1)N(C)C
Activity: inactive

given-smiles: CCCN(CCC)/C(C)=N/C1=Nc2ccc(OC(F)(F)F)cc2CS1
Activity: 31%

given-smiles: NC1=Nc2ccc(OC(F)(F)F)cc2CS1
Activity: inactive

given-smiles: CN/C(C)=N/C1=Nc2ccccc2SC1
Activity: 33.2%

given-smiles: CCCNC(=S)NC1=Nc2ccccc2CS1
Activity: inactive

given-smiles: C/C(=N\C1=Nc2ccccc2CS1)N(C)C
Activity: 78.4%

given-smiles: CCN(CC)/C(C)=N/C1=Nc2ccccc2SC1
Activity: inactive

given-smiles: CCN(CC)/C(C)=N/C1=Nc2ccc(OC(F)(F)F)cc2CS1
Activity: inactive

given-smiles: CCCN(CCC)/C(C)=N/C1=Nc2ccccc2CS1
Activity: 58.2%

given-smiles: CCCN(CCC)/C(C)=N/C1=Nc2ccccc2SC1
Activity: 53.5%
